Assayed system: Locusta migratoria tyramine receptor (TyrLoc) (Locusta migratoria, UniProt Q25321)
Construct: The coding region of the TyrLoc cDNA was amplified by polymerase chain reaction (PCR) from pVJ12 and pVJ12-IEG; expressed in transfected cells
Sequence (Q25321 12-484): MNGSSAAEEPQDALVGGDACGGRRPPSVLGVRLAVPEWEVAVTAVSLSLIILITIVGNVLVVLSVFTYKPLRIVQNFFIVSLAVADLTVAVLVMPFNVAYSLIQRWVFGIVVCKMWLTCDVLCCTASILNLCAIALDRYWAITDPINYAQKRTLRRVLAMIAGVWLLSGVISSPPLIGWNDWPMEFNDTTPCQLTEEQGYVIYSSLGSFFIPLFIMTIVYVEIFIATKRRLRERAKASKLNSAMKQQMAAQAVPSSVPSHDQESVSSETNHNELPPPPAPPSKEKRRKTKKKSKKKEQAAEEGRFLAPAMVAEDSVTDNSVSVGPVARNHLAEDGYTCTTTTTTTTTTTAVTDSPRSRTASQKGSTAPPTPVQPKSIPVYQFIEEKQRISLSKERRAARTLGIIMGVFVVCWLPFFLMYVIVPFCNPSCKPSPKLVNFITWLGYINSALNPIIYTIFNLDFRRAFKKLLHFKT
Assay overview: Ca2+ measurements (fura-2) in uninduced MEL-TyrLoc cells
Format: cell-based
Cond: qualitative; data not shown for part
Observable: antagonism of the Ca2+ increase induced by TA

Molecule	Test result
CN1CCN2c3ccccc3Cc3ccccc3C2C1 (centres unmarked) [mianserin]	clearly inhibited
c1ccc(CC2=NCCN2)cc1 [tolazoline]	weak antagonists
CN(C)CCCN1c2ccccc2Sc2ccc(Cl)cc21 [Chlorpromazine]	clearly inhibited
c1ccc2c(CC3=NCCN3)cccc2c1 [naphazoline]	weak antagonists
